Reported values of fold enrichment in the immunoprecipitate over cells with GFP-mFerritin alone for individual entries
- tested on: T1, endogenous human ferritin of HEK-293T cells (Homo sapiens (HEK-293T, endogenous), UniProt P02794;P02792)
- T1 construct: ferritin heavy chain, human; the chain whose unique peptides were quantified; ferritin light chain, human; Only the heavy chain was measured; also called human ferritin heavy chain; FTH1_human
- T1 sequence (P02794 whole entry, chain 1 of 2): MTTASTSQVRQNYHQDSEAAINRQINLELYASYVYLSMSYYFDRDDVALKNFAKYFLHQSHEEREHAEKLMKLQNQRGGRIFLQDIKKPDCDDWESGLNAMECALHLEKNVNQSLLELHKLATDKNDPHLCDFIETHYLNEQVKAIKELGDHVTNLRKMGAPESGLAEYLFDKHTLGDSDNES
- T1 sequence (P02792 whole entry, chain 2 of 2): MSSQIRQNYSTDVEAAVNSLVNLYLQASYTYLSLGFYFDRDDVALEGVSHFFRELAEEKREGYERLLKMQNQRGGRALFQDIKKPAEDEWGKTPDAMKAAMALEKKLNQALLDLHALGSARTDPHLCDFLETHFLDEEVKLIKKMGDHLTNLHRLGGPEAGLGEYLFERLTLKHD
- test protocol: affinity purification with mass spectrometry; the anti-HA immunoprecipitates of nanobody-HA-mCherry from HEK-293T with GFP-mFerritin; LC-MS/MS, abundance from peptides unique to mouse or human ferritin heavy chain; enrichment against cells with GFP-mFerritin alone
- stated conditions: partners not purified
readout type: fold enrichment in the immunoprecipitate over cells with GFP-mFerritin alone (fold)

binder	assay result
anti-ferritin nanobody clone 17 fused to HA-tagged mCherry (VHH, the VHH as in m19; also called Nb-Ft-17; Nb-Ft-HA-mCherry (clone 17)) VHH: QVQLQESGGGAVQAGGSLRLSCAASGLAFSSYGMGWFRQAPGKEREFVAAISWGDGTTNYADSVKGRLTISRDNARNTVYLQMNSLKVGDTAVYYCAAGLGAPRAVAGSFQHWGQGTQVTVSS	20.9
anti-ferritin nanobody clone 14 fused to HA-tagged mCherry (VHH, the VHH as in m16; In the functional row this id stands for the same VHH fused to the N-terminus of TRPV1; also called Nb-Ft-14; Nb-Ft-HA-mCherry (clone 14)) VHH: QVQLQESGGGLVQPGGSLRLSCAASGLAFSSYGMGWFRQAPGKEREFVVAIPWSGGTTNYADSVKGRFTISRDNARNTVYLQMNSLKVEDTAVYYCAAGLGAPTVVADSYQHWGQGTQVTVSS	5.1
anti-ferritin nanobody clone 9 fused to HA-tagged mCherry (VHH, the VHH as in m11; In the functional row this id stands for the same VHH fused to the N-terminus of TRPV1; also called Nb-Ft-9; Nb-Ft-HA-mCherry (clone 9)) VHH: QVQLQESGGGLVQAGGSLRLSCAASGLAFSSYGMGWFRQAPGKEREFVAAIRWSGGTTNYADSVKGRFTISRDNVRNTAYLQMNSLKVEDTAVYYCAAGLGAPTVVADSYQHWGQGTQVTVSS	4.6
anti-ferritin nanobody clone 2 fused to HA-tagged mCherry (VHH, the VHH as in m4; In the functional rows this id stands for the same VHH fused to the N-terminus of TRPV1 (Nb-Ft-2-TRPV1^Ca2+); also called Nb-Ft-2; Nb-Ft-HA-mCherry (clone 2)) VHH: QVQLQESGGGLVQPGGSLRLSCAASGLAFSNYGMGWFRQAPGKEREFVSAVSWISDTTNYADSVKGRFTISRDNARNTVYLQMNSLKVEDTAVYYCAAGLGAPRVVAGSYQHWGQGTQVTVSS	58.1
anti-ferritin nanobody clone 10 fused to HA-tagged mCherry (VHH, the VHH as in m12; also called Nb-Ft-10; Nb-Ft-HA-mCherry (clone 10)) VHH: QVQLQESGGGLVQAGGSLRLSCAASGLAFSSYGMGWFRQAPGKEREFVVAIPWSGGTTNYADSVKGRFTISRDNARNTVYLQMNSLKVEDTAVYYCAAGLGAPTVVADSYQHWGQGTQVTVSS	7

These measurements were taken from paper doi:10.1101/2023.06.20.545120.
